Biological target: PKC-zeta (Homo sapiens)
Construct: purchased Calbiochem
Sequence (Q05513 1-592): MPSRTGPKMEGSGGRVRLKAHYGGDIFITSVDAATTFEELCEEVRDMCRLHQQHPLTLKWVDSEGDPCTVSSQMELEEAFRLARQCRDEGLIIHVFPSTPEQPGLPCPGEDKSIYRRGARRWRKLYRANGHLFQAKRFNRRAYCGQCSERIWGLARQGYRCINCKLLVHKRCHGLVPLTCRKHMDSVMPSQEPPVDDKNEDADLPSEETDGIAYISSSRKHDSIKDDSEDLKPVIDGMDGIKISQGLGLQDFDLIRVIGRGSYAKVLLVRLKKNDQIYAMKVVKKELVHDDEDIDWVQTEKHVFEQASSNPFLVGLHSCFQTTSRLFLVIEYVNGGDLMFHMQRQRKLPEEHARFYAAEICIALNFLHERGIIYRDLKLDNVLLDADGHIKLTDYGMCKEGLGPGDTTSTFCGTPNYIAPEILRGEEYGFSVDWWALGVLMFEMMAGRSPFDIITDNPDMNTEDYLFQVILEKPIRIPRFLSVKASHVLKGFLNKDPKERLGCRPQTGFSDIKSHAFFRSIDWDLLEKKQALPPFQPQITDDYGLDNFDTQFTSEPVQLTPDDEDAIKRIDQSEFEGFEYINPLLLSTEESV
Experiment: In vitro kinase assay: peptide phosphorylation by PKC-zeta
Assay type: biochemical
Conditions: normalized to best substrate
Assignment: determine reported PKC-zeta phosphorylation for the given substances.
Give bare numbers, in %.

Here are 2 substances together with their reported answers.
substance	experimental-readout	measured-result
105 (ALRRPSLRREADD) [compound 105]	PKC-zeta phosphorylation	4
83 (RKIPKRPGSVHRTPSRQ) [compound 83]	PKC-zeta phosphorylation	4

## Input I'm curious: which PKC-zeta phosphorylation was measured for 88 (KKPFKLSGLSFKRNRKE) [compound 88] tested on PKC-zeta (Homo sapiens)?
## Output 4
